# TARGET: DNA helicase (UniProt P0ACB1)
# Sequence (P0ACB1 whole entry): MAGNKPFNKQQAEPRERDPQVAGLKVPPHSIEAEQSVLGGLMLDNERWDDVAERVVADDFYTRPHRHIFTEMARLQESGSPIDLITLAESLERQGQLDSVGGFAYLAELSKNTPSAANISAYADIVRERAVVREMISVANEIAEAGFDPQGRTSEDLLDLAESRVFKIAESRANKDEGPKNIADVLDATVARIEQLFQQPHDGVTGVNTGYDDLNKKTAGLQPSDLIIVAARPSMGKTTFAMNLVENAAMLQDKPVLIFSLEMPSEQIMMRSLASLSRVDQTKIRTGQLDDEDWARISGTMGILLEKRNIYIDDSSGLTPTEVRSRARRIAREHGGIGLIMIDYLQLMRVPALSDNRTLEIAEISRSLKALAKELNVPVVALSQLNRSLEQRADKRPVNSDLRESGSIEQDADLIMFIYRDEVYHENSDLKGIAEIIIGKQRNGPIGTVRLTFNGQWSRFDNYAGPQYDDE
# PROTOCOL_DETAILS: relative enzymatic activity vs untreated control (fraction); higher = less inhibition
# CONDITION_CONTEXT: 100 µM; incubation time: 2 h at 37 C
Examples of compounds with documented relative enzymatic activity follow.

Example results:
Name the recorded relative enzymatic activity for "CN(C)CCC=C1c2ccccc2COc2ccc(CC(=O)O)cc21.Cl" .
0.368

Name the recorded relative enzymatic activity for "CC[C@@H](C)CCCCC(=O)N[C@@H](CCN)C(=O)N[C@H](C(=O)N[C@@H](CCN)C(=O)N[C@H]1CCNC(=O)[C@H]([C@@H](C)O)NC(=O)[C@H](CCN)NC(=O)[C@H](CCN)NC(=O)[C@H](CC(C)C)NC(=O)[C@@H](Cc2ccccc2)NC(=O)[C@@H](CCN)NC1=O)[C@@H](C)O" .
0.0939

Name the recorded relative enzymatic activity for "CO[C@@H]1[C@@H](OC(=O)c2ccc(C)[nH]2)[C@@H](O)[C@@H](Oc2ccc3c(c2C)OC(=O)[C@H](NC(=O)c2[nH]cc(CC(=O)Nc4cc5ccc(O[C@@H]6OC(C)(C)[C@H](OC)[C@@H](OC(=O)c7ccc(C)[nH]7)[C@H]6O)c(C)c5oc4=O)c2C)C3)CC1(C)C" .
0.0977

Next:
Name the recorded relative enzymatic activity for "Cc1cc(C2CCCCC2)n(O)c(=O)c1.NCCO" .
0.546

###

Examples of compounds with documented relative enzymatic activity follow.
# Tested on: RNA polymerase
# PROTOCOL_DETAILS: relative enzymatic activity vs untreated control (fraction); higher = less inhibition
# CONDITION_CONTEXT: 100 µM; incubation time: 2 h at 37 C
Form field (numeric): enter value without unit.

Name the recorded relative enzymatic activity for "CCOC(=O)CCC(=O)O[C@H]1[C@H](O[C@@H]2[C@@H](C)[C@H](O[C@H]3C[C@@](C)(OC)[C@@H](O)[C@H](C)O3)[C@@H](C)C(=O)O[C@H](CC)[C@@](C)(O)[C@H](O)[C@@H](C)C(=O)[C@H](C)C[C@@]2(C)O)O[C@H](C)C[C@@H]1N(C)C" .
0.831

Name the recorded relative enzymatic activity for "CC[C@@H](C)CCCCC(=O)N[C@@H](CCN)C(=O)N[C@H](C(=O)N[C@@H](CCN)C(=O)N[C@H]1CCNC(=O)[C@H]([C@@H](C)O)NC(=O)[C@H](CCN)NC(=O)[C@H](CCN)NC(=O)[C@H](CC(C)C)NC(=O)[C@@H](Cc2ccccc2)NC(=O)[C@@H](CCN)NC1=O)[C@@H](C)O" .
0.46

Name the recorded relative enzymatic activity for "O=C1NCCN1c1ncc([N+](=O)[O-])s1" .
0.792

Name the recorded relative enzymatic activity for "CCCN1C[C@H](C)[C@@H](O)[C@](C)(O)[C@@H](CC)OC(=O)[C@H](C)[C@@H](O[C@H]2C[C@@](C)(OC)[C@@H](O)[C@H](C)O2)[C@H](C)[C@@H](O[C@@H]2O[C@H](C)C[C@H](N(C)C)[C@H]2O)[C@](C)(O)C[C@H]1C" .
0.766

Name the recorded relative enzymatic activity for "CCCCCCCCCCCCCCCC[N+](C)(C)Cc1ccccc1.[Cl-]" .
0.133

Others:
Name the recorded relative enzymatic activity for O=C(NC(CO)C(O)c1ccc([N+](=O)[O-])cc1)C(Cl)Cl (centres undefined) .
0.86

Name the recorded relative enzymatic activity for "CCCC[P+](CCCC)(CCCC)Cc1ccc(NC(=O)[C@H](Cc2ccc3ccccc3c2)N/C(=N/C2CCCCC2)NC2CCCCC2)cc1" .
0.346

Name the recorded relative enzymatic activity for "CCn1cc(C(=O)O)c(=O)c2cc(F)c(N3CCNCC3)cc21" .
0.849
